STUDY TARGET: Kv4.3 (Homo sapiens)
Sequence (Q9UK17 whole entry): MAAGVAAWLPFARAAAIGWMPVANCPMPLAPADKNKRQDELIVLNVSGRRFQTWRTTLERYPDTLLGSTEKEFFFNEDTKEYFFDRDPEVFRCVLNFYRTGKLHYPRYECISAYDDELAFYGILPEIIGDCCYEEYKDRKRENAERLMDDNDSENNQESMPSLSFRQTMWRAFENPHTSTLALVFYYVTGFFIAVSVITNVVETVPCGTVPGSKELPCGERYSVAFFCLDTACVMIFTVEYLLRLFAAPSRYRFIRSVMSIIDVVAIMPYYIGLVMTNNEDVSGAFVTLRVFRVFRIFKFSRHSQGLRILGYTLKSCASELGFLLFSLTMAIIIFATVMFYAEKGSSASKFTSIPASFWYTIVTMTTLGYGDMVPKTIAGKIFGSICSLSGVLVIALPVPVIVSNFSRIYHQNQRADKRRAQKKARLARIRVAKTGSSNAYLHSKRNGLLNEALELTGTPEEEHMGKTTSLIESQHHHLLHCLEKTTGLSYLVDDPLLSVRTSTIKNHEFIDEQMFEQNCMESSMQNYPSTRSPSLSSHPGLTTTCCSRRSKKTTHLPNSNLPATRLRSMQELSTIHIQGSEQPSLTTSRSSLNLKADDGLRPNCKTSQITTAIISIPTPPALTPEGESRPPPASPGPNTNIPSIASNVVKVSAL
PROTOCOL TEXT: Inhibition of Kv4.3 at 10 uM after 5 mins by patch clamp assay
READOUT TYPE: inhibition at 5 min, 10 µM (%)
Quick reminder: number only, in %, skip the unit.

Input: Request body: readout inhibition at 5 min, 10 µM, system Kv4.3 (Homo sapiens), query CCCNCC(O)COc1ccccc1C(=O)CCc1ccccc1 (racemic) . Return the value.
Output: 44.1

###

Test system: Raji
PROTOCOL TEXT: Cytotoxicity against human Raji cells after 72 hrs by luminescence assay
Format: cell-based
READOUT TYPE: Activity

Solved cases below.
Input: Which value of Activity has been reported for Cl.O=C(CCc1ccc(F)cc1)c1cc(F)ccc1OCC(O)CN1CCN(Cc2ccccc2)CC1 (racemic) in the records?
Output: Non-toxic

Input: Query Cl.O=C(CCc1ccc(F)cc1)c1ccccc1OCC(O)CN1CCN(c2ccc(Cl)c(Cl)c2)CC1 (racemic) next
Output: Non-toxic

Input: Repeat with CN1CCN(CC(O)COc2ccc(F)cc2C(=O)CCc2ccccc2)CC1.Cl (racemic)
Output: Non-toxic

Input: Same question for Cl.O=C(CCc1ccccc1)c1ccccc1OCC(O)CN1CCC(O)(c2ccc(Cl)cc2)CC1 (racemic) please.
Output: Non-toxic

Input: Here is the next compound: COc1ccc(N2CCN(CC(O)COc3ccc(F)cc3C(=O)CCc3ccccc3)CC2)cc1.Cl (racemic)
Output: Non-toxic

Input: Do the same for CC(C)N(CC(O)COc1ccccc1C(=O)CCc1ccccc1)c1ccccc1.Cl (racemic) please
Output: Non-toxic

Input: Can you handle Cc1ccc(N2CCN(CC(O)COc3ccc(F)cc3C(=O)CCc3ccc(F)cc3)CC2)cc1.Cl (racemic) next?
Output: Non-toxic

Input: What do we get for Cl.O=C(CCc1ccc(F)cc1)c1ccccc1OCC(O)Cn1ccc2ccccc21 (racemic) ?
Output: Non-toxic

Input: Try the compound CC(C)c1nccn1CC(O)COc1ccccc1C(=O)CCc1ccccc1.Cl (racemic)
Output: Non-toxic

Input: Likewise for Cl.O=C(CCc1ccccc1)c1ccccc1OCC1CO1 (racemic) ?
Output: Non-toxic

New cases:
Input: What does the record list as Activity for CCN(CC)CC(O)COc1ccccc1C(=O)CCc1ccc(F)cc1.Cl (racemic) ?
Output: Non-toxic

Input: Follow-up item: `Cl.O=C(/C=C/c1ccccc1)c1cc(F)ccc1O`
Output: Non-toxic

Input: Entry Cl.O=C(CCc1ccccc1)c1cc(F)ccc1OCC(O)CN1CCN(c2ccccc2F)CC1 (racemic) please
Output: Non-toxic

Input: Next compound up: Cl.O=C(CCc1ccc(F)cc1)c1ccccc1OCC(O)CN1CCN(c2ccc(F)cc2)CC1 (racemic)
Output: Non-toxic

Input: Then what about the compound Cl.O=C(CCc1ccccc1)c1cc(F)ccc1OCC(O)CN1CCN(c2ccccc2)CC1 (racemic) ?
Output: Non-toxic

Input: Try the compound Cl.O=C(CCc1ccc(F)cc1)c1ccccc1OCC(O)CN1CCN(c2ccccc2)CC1 (racemic)
Output: Non-toxic

Input: // query: Cc1ccc(N2CCN(CC(O)COc3ccccc3C(=O)CCc3ccccc3)CC2)cc1.Cl (racemic)
Output: Non-toxic
